- target of assay: Sushi domains (SD1/2) protein of GABAB1a (GB1a)
- Sequence (Q9Z0U4 29-158): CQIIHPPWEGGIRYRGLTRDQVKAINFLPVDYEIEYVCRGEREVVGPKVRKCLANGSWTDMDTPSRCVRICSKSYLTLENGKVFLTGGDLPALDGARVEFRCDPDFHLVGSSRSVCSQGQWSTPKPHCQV
- protocol description: FP competition vs TAMRA AJAP-1probe
Starred links: 1 amine or outer side, 2 acyl side, 3 side chain; linkers in the order of their positions; H or OH if unused. Non-standard residues stand in square brackets, D forms with d. Tyr(Bzl) = Obtyr, O-benzyl-L-tyrosine, O=C([C@H](Cc1ccc(OCc2ccccc2)cc1)N[*:1])[*:2]
Below, each of the binders is paired with its reported Ki value.
A complete answer gives the number and then names the unit.

Some binders with recorded Ki:
{"columns": ["binder", "Ki"],
 "data": [
  ["Ac-ETEFIAWGPHGDED-NH2", "38 nM"],
  ["Ac-EDDSWIDWYGADTD-NH2 [peptide 30]", "11 nM"],
  ["Ac-PWAIVWGPTGDED-NH2", "222 nM"]
]}

GET /value?item= `Ac-ETEFIAWGPTGDEQ-NH2` &field=Ki returns 37 nM

GET /value?item= Ac-EDDSDVW[Tyr(Bzl)]GGADTD-NH2 (SMILES CC(=O)N[C@@H](CCC(=O)O)C(=O)N[C@@H](CC(=O)O)C(=O)N[C@@H](CC(=O)O)C(=O)N[C@@H](CO)C(=O)N[C@@H](CC(=O)O)C(=O)N[C@H](C(=O)N[C@@H](Cc1c[nH]c2ccccc12)C(=O)N[C@@H](Cc1ccc(OCc2ccccc2)cc1)C(=O)NCC(=O)NCC(=O)N[C@@H](C)C(=O)N[C@@H](CC(=O)O)C(=O)N[C@H](C(=O)N[C@@H](CC(=O)O)C(N)=O)[C@@H](C)O)C(C)C) [EDDSDVW(Obtyr)GGADTD] &field=Ki returns 3860 nM

Cited source for all entries: patent US20260193293A1
